target of assay: huSTING (HAQ) (Homo sapiens (Human), UniProt Q86WV6, G230A/H232R/R293Q/R71H)
Sequence (Q86WV6 whole entry R71H/G230A/H232R/R293Q): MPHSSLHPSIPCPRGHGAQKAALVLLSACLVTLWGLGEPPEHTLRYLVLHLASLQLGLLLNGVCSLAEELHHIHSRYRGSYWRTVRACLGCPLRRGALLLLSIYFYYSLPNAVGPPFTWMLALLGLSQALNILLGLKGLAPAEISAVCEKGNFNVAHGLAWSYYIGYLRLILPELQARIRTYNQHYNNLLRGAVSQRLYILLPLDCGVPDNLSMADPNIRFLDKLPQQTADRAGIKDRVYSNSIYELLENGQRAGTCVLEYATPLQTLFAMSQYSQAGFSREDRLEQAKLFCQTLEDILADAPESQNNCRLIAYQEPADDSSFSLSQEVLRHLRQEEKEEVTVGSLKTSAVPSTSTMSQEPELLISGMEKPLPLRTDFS
assay notes: THP-1 reporter cell line assay, THP-1 STING Lucia ISG cells
Format: cell-based
condition info: THP-1 STING Lucia ISG cells; 24 h; top concentration 50 μM; read-out: Cellular EC50 huSTING (HAQ)
Decision: EC50 beneath 2000 nM gives met; EC50 meeting or exceeding 2000 nM gives not met.

{"columns": ["molecular string", "assigned class"],
 "data": [
  ["CCOC(=O)c1sc2cccc(Cl)c2c1COc1ccc(C(N)=O)c(F)c1F", "not met"],
  ["CCOC(=O)c1sc2cccc(Cl)c2c1COc1ccc(C(N)=O)c(F)c1", "met"],
  ["NC(=O)c1ccc(OCc2c(C(=O)O)sc3ccc(F)c(F)c23)cc1", "not met"],
  ["NC(=O)c1ccc(OCc2c(C(=O)O)sc3cc(Cl)ccc23)cc1", "not met"],
  ["CCOC(=O)c1sc2c(F)ccc(F)c2c1COc1ccc(C(N)=O)cc1", "not met"],
  ["NC(=O)c1ccc(OCc2c(C(=O)O)sc3cccc(Cl)c23)c(F)c1F", "not met"],
  ["CCOC(=O)c1sc2cccc(F)c2c1COc1c(F)cc(C(N)=O)cc1F", "not met"],
  ["NC(=O)c1ccc(OCc2c(C(=O)O)sc3cccc(F)c23)cc1C(F)(F)F", "not met"],
  ["CCOC(=O)c1sc2cccc(Cl)c2c1COc1c(F)cc(C(N)=O)cc1F", "met"]
]}

====

target of assay: huSTING (WT) (Homo sapiens (Human), UniProt Q86WV6, H232R)
Sequence (Q86WV6 other isoform, or with tags, fused parts or gaps, stated change not applied): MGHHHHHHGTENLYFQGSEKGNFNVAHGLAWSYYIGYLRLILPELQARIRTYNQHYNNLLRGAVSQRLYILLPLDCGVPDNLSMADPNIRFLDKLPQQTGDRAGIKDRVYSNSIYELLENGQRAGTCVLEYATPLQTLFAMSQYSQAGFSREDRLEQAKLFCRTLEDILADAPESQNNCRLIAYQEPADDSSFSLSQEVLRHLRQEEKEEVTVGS
assay notes: Differential scanning fluorimetry (DSF), huSTING (WT)
Assay type: binding
condition info: 1 μM protein, compound at 100 μM; read-out: DSF huSTING (WT) ΔTm (° C.)
Checkbox rule: ΔTm at 100 µM lower than 0.1 °C = 1.0; ΔTm at 100 µM not lower than 0.1 °C = 0.0.

{"columns": ["molecular string", "assigned class"],
 "data": [
  ["NC(=O)c1cc(F)c(OCc2c(C(=O)O)sc3ccc(F)c(Cl)c23)c(F)c1", 0.0],
  ["CC(C)(C)C(=O)OCOC(=O)c1sc2cccc(Cl)c2c1COc1ccc(C(N)=O)cc1", 1.0],
  ["NC(=O)c1ccc(OCc2c(C(=O)O)sc3cccc(Cl)c23)c(F)c1F", 0.0],
  ["NC(=O)c1ccc(NCc2c(C(=O)O)sc3cccc(Cl)c23)cc1", 1.0],
  ["CCOC(=O)c1sc2c(Cl)cccc2c1COc1ccc(C(N)=O)cc1", 0.0],
  ["CCOC(=O)c1sc2cc(Cl)ccc2c1COc1ccc(C(N)=O)cc1", 0.0],
  ["CCOC(=O)c1sc2ccc(Cl)cc2c1COc1ccc(C(N)=O)cc1", 1.0],
  ["NC(=O)c1ccc(OCc2c(C(=O)O)sc3ccc(F)c(Cl)c23)cc1", 0.0],
  ["NC(=O)c1ccc(OCc2c(C(=O)O)sc3c(F)ccc(F)c23)cc1", 0.0],
  ["Cc1cccc2sc(C(=O)O)c(COc3ccc(C(N)=O)cc3)c12", 0.0],
  ["CCOC(=O)c1sc2ccccc2c1COc1ccc(C(N)=O)cc1", 1.0],
  ["NC(=O)c1cc(F)c(OCc2c(C(=O)O)sc3c(F)ccc(F)c23)c(F)c1", 0.0]
]}
